Measured Target: UniProt:H6U756
Sequence (H6U756 entry or part of it): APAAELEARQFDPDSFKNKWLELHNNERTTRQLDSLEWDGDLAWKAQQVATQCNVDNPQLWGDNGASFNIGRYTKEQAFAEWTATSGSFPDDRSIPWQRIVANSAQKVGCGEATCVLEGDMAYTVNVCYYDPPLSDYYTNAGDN
Readout Type: pKd
Field pKd (float): negative decimal logarithm of the concentration in molar.

// map CCCCCCCCCCCCCCCC(=O)O to recorded pKd (system: UniProt:H6U756)
3.97
